- tested target: various mutants of kinase EGFR (BaF3 cell lines stably transfected with kinase) (Homo sapiens, UniProt P00533, L858R)
- Construct: expressed in transfected cells; host or cells: BaF3
- Sequence (P00533 25-1210 L858R): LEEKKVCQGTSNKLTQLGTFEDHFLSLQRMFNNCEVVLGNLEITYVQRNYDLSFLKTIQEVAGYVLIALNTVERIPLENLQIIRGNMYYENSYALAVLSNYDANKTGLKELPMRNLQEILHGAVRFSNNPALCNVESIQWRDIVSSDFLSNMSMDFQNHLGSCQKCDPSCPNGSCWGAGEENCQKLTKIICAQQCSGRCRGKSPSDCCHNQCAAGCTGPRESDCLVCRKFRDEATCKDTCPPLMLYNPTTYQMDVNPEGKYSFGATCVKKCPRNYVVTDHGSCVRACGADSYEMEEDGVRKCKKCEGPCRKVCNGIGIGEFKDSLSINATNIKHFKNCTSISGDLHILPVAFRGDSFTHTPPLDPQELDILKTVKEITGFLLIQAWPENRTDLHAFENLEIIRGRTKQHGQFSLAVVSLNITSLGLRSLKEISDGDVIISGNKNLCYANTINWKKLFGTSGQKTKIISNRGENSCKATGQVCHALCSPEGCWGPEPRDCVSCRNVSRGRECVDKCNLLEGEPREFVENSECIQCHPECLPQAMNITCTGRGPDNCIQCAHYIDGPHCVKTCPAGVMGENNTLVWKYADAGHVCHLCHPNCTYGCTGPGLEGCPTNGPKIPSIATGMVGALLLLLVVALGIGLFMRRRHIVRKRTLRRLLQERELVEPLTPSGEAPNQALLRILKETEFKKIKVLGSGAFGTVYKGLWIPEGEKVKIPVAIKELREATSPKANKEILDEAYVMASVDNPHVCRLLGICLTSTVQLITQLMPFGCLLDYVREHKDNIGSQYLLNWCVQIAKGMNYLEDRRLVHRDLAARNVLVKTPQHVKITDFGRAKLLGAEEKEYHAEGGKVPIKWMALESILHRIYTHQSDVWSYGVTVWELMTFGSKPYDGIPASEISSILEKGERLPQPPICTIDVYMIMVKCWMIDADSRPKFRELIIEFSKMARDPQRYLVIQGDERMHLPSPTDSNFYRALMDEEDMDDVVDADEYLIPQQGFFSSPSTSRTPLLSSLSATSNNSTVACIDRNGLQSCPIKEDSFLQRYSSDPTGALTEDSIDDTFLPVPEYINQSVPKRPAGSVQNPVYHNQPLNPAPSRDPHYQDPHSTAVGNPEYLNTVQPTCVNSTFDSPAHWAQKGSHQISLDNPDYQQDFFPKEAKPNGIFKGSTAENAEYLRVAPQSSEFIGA
- procedure text: Growth inhibitory activity of compounds on BaF3 cell lines stably transfected with kinase (MTS, 48 h)
- Type: cell-based
- test parameters: BaF3 cell line stably transfected with EGFR L858R, read-out: L858R growth inhibitory activity IC50
- Protocol: The activity of compounds against various mutants of kinase EGFR was evaluated by their effect of inhibiting growth of BaF3 cell lines stably transfected with kinase. The specific test method was given as follows: […] 3) Compound test: cells were incubated into a 96-well culture plate, the volume of cytosol was 90 µL, and then 10 µL of the compound at each gradient concentration was added. […] OD values at 490 nm were measured by a microplate reader (VARIOSKAN FLASH, Thermo). […]
measured endpoint: IC50

// worked examples, IC50 included
| smiles code | measured endpoint | recorded result |
| --- | --- | --- |
| CCS(=O)(=O)N(C)c1c(Nc2nc(Nc3cc(N4CCC(O)CC4)ccc3OC)ncc2Cl)ccc2nccnc12 | IC50 | ≤ 50 nM |
| CCc1cc(Nc2nc(Nc3ccc4nccnc4c3N(C)S(C)(=O)=O)c3cc[nH]c3n2)c(OC)nc1N1CCC(N2CCN(C)CC2)CC1 | IC50 | 50 to 500 nM |
| COc1ccc(N2CCC(O)CC2)cc1Nc1ncc(C(F)(F)F)c(Nc2ccc3nccnc3c2N(C)S(C)(=O)=O)n1 | IC50 | 50 to 500 nM |
| COc1cc(N2CCC(N(C)C)CC2)c(C)cc1Nc1nc(Nc2ccc3nccnc3c2N(C)S(C)(=O)=O)c2[nH]ccc2n1 | IC50 | 500 to 2500 nM |
| COc1ccc(N2CCC(O)CC2)cc1Nc1ncc(Br)c(Nc2ccc3nccnc3c2N(C)S(=O)(=O)C(F)(F)F)n1 | IC50 | 50 to 500 nM |
| CCc1cc(Nc2ncc(Br)c(Nc3ccc4nccnc4c3NS(C)(=O)=O)n2)c(OC)cc1N1CCN(C)CC1 | IC50 | ≤ 50 nM |

The record that follows has no IC50 shown yet.
Kindly indicate its recorded IC50. Item: `COc1cc(N2CCC(N3CCN(C)CC3)CC2)c(C)cc1Nc1nc(Nc2ccc3nccnc3c2N(C)S(C)(=O)=O)c2occc2n1`
50 to 500 nM
